# AC50 listing for each entry below
assay system: Alpha-1A adrenergic receptor (Homo sapiens)
Format: functional, cell-based

molecule: N[C@H]1C(O)O[C@H](CO)[C@@H](O)[C@@H]1O (stereo not given in full) [GLUCOSAMINE]
AC50: > 30 µM
//
molecule: CCC(=O)NCC[C@@H]1CCc2ccc3c(c21)CCO3 [RAMELTEON]
AC50: > 30 µM
//
molecule: CC(C)(C)NCC(O)COc1cccc2c1SCCC2 (stereo not given) [TERTATOLOL]
AC50: > 30 µM
//
molecule: CC(C)(C)C(=O)C(Oc1ccc(Cl)cc1)n1ccnc1 (stereo not given) [CLIMBAZOLE]
AC50: 25.6 µM
//
molecule: CCOC(=O)[C@H](CCc1ccccc1)N[C@@H](C)C(=O)N1CC2(C[C@H]1C(=O)O)SCCS2
AC50: > 30 µM

---

Here we list molecules with their recorded log10(AC50) when tested on Sodium-dependent noradrenaline transporter (Homo sapiens). Further: assay procedure not described here.
Sequence (P23975 whole entry): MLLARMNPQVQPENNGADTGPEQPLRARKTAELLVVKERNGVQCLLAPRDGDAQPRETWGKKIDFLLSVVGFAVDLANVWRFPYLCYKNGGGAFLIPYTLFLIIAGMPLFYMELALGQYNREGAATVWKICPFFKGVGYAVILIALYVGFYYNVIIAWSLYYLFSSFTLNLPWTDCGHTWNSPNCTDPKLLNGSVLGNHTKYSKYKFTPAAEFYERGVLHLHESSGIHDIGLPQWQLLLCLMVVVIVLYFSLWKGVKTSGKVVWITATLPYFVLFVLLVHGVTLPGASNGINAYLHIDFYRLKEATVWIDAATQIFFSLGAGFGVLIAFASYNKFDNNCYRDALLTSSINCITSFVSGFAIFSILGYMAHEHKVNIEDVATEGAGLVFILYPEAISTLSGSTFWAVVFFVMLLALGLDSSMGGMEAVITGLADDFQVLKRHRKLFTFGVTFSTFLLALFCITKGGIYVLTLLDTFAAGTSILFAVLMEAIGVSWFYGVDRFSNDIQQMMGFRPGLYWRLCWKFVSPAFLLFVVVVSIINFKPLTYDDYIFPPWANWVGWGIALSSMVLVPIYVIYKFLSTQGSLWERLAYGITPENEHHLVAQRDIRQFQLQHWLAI
readout type: log10(AC50) (log10 of the value in µM)

molecule: Clc1ccc(CCCOCCCN2CCCCC2)cc1
endpoint value: 1.11
--
molecule: CN(C)CCC(c1ccc(Cl)cc1)c1ccccn1 (stereo unspecified)
endpoint value: 0.89
--
molecule: CN1CCC(=C2c3ccccc3CCc3sccc32)CC1
endpoint value: 0.04
--
molecule: C1CCC(C(CC2CCCCN2)C2CCCCC2)CC1 (stereo unspecified)
endpoint value: 0.86
--
molecule: CN(C)CCC=C1c2ccccc2C=Cc2ccccc21
endpoint value: -0.42
--
molecule: CCOc1ccccc1OCC1CNCCO1 (stereo unspecified)
endpoint value: -0.01

---

Reported AC50, Alpha-1A adrenergic receptor (Homo sapiens, UniProt P35348).

compound: CNC(=O)c1ccccc1Sc1ccc2c(/C=C/c3ccccn3)n[nH]c2c1
assay system: Alpha-1A adrenergic receptor (Homo sapiens, UniProt P35348)
Sequence (P35348 whole entry): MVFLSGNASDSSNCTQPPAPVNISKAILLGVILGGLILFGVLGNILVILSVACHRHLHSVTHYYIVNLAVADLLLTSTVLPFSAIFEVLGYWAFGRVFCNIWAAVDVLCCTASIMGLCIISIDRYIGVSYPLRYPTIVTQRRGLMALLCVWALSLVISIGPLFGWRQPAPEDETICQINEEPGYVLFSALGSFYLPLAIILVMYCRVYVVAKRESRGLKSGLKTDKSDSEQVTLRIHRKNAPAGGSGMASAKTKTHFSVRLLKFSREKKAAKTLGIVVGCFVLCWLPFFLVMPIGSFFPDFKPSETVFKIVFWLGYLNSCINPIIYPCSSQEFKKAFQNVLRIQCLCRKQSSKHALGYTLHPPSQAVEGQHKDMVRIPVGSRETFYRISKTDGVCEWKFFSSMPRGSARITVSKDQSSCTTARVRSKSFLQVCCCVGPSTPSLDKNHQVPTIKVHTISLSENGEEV
AC50: > 10 µM
--
compound: Cc1cn([C@H]2C=C[C@@H](CO)O2)c(=O)[nH]c1=O
assay system: Alpha-1A adrenergic receptor (Homo sapiens, UniProt P35348)
AC50: 29.9 µM
--
compound: Cc1cccc(Nc2ccccc2C(=O)O)c1C
assay system: Alpha-1A adrenergic receptor (Homo sapiens, UniProt P35348)
AC50: > 10 µM
--
compound: CCCSc1ccc2nc(NC(=O)OC)[nH]c2c1
assay system: Alpha-1A adrenergic receptor (Homo sapiens, UniProt P35348)
AC50: > 10 µM
--
compound: COc1cc2c(N)nc(N3CCN(C(=O)OCC(C)(C)O)CC3)nc2c(OC)c1OC
assay system: Alpha-1A adrenergic receptor (Homo sapiens, UniProt P35348)
AC50: 1.8 µM
--
compound: CN(C)/N=N/c1[nH]cnc1C(N)=O
assay system: Alpha-1A adrenergic receptor (Homo sapiens, UniProt P35348)
AC50: > 10 µM
--
compound: CCOc1ccccc1OCC1CNCCO1 (stereo unspecified)
assay system: Alpha-1A adrenergic receptor (Homo sapiens, UniProt P35348)
AC50: 11.2 µM
--
compound: C#C[C@]1(O)CC[C@H]2[C@@H]3CCc4cc(OC5CCCC5)ccc4[C@H]3CC[C@@]21C
assay system: Alpha-1A adrenergic receptor (Homo sapiens, UniProt P35348)
AC50: > 10 µM
--
compound: CCCN(CCC)C(=O)C(CCC(=O)O)NC(=O)c1ccccc1 (stereo unspecified) [PROGLUMIDE]
assay system: Alpha-1A adrenergic receptor (Homo sapiens, UniProt P35348)
AC50: > 30 µM
--
compound: CCCC(C)C1(CC)C(=O)NC(=O)NC1=O (stereo unspecified)
assay system: Alpha-1A adrenergic receptor (Homo sapiens, UniProt P35348)
AC50: > 30 µM
--
compound: Cn1nnc2c(C(N)=O)ncn2c1=O [TEMOZOLOMIDE]
assay system: Alpha-1A adrenergic receptor (Homo sapiens, UniProt P35348)
AC50: > 10 µM
--
compound: C[C@H](CSC(=O)c1ccccc1)C(=O)N1C[C@@H](Sc2ccccc2)C[C@H]1C(=O)O
assay system: Alpha-1A adrenergic receptor (Homo sapiens, UniProt P35348)
AC50: > 10 µM
--
compound: CCC(C)n1ncn(-c2ccc(N3CCN(c4ccc(OCC5COC(Cn6cncn6)(c6ccc(Cl)cc6Cl)O5)cc4)CC3)cc2)c1=O (stereo unspecified)
assay system: Alpha-1A adrenergic receptor (Homo sapiens, UniProt P35348)
AC50: > 10 µM
--
compound: NC(=O)CN1CC(O)CC1=O (stereo unspecified)
assay system: Alpha-1A adrenergic receptor (Homo sapiens, UniProt P35348)
AC50: > 30 µM
--
compound: COc1ccccc1OCC(O)CN1CCN(CC(=O)Nc2c(C)cccc2C)CC1 (stereo unspecified)
assay system: Alpha-1A adrenergic receptor (Homo sapiens, UniProt P35348)
AC50: 13 µM
--
compound: CN(C)CC/C=C1\c2ccccc2CSc2ccccc21 [DOTHIEPIN]
assay system: Alpha-1A adrenergic receptor (Homo sapiens, UniProt P35348)
AC50: 3.2 µM
--
compound: NC(=O)OCC(COC(N)=O)c1ccccc1 [FELBAMATE]
assay system: Alpha-1A adrenergic receptor (Homo sapiens, UniProt P35348)
AC50: > 10 µM
--
compound: O=C1Nc2ccc(Cl)cc2[C@@](C#CC2CC2)(C(F)(F)F)O1
assay system: Alpha-1A adrenergic receptor (Homo sapiens, UniProt P35348)
AC50: > 10 µM
--
compound: c1ccc([C@H]2CN3CCSC3=N2)cc1
assay system: Alpha-1A adrenergic receptor (Homo sapiens, UniProt P35348)
AC50: > 10 µM
--
compound: C[C@]12CC[C@H]3[C@@H](CCC4=CC(=O)CC[C@@]43C)[C@@H]1CC[C@@H]2O
assay system: Alpha-1A adrenergic receptor (Homo sapiens, UniProt P35348)
AC50: > 30 µM
--
compound: Clc1ccc2nsnc2c1NC1=NCCN1
assay system: Alpha-1A adrenergic receptor (Homo sapiens, UniProt P35348)
AC50: 3.9 µM
--
compound: CC(C)C[C@H]1C(=O)N2CCC[C@H]2[C@]2(O)O[C@](NC(=O)[C@@H]3C=C4c5cccc6[nH]c(Br)c(c56)C[C@H]4N(C)C3)(C(C)C)C(=O)N12
assay system: Alpha-1A adrenergic receptor (Homo sapiens, UniProt P35348)
AC50: 0.197 µM
--
compound: C[C@]1(O)CC[C@H]2[C@@H]3CCC4=CC(=O)CC[C@]4(C)[C@@]3(F)[C@@H](O)C[C@@]21C
assay system: Alpha-1A adrenergic receptor (Homo sapiens, UniProt P35348)
AC50: > 30 µM
--
compound: CCCC(=O)O[C@]1(C(=O)CO)CC[C@H]2[C@@H]3CCC4=CC(=O)CC[C@]4(C)[C@H]3[C@@H](O)C[C@@]21C [HYDROCORTISONE BUTYRATE]
assay system: Alpha-1A adrenergic receptor (Homo sapiens, UniProt P35348)
AC50: > 10 µM
--
compound: Cc1c(OCC(F)(F)F)ccnc1C[S+]([O-])c1nc2ccccc2[nH]1 (stereo unspecified)
assay system: Alpha-1A adrenergic receptor (Homo sapiens, UniProt P35348)
AC50: > 10 µM
--
compound: COc1cccc(C2(O)CCCCC2CN(C)C)c1 (stereo unspecified)
assay system: Alpha-1A adrenergic receptor (Homo sapiens, UniProt P35348)
AC50: > 10 µM
--
compound: CC(C)Cn1cnc2c(N)nc3ccccc3c21
assay system: Alpha-1A adrenergic receptor (Homo sapiens, UniProt P35348)
AC50: 5.67 µM
--
compound: CN1C(=O)C(O)N=C(c2ccccc2)c2cc(Cl)ccc21 (stereo unspecified)
assay system: Alpha-1A adrenergic receptor (Homo sapiens, UniProt P35348)
AC50: > 10 µM
--
compound: Clc1ccc(C(c2ccccc2Cl)C(Cl)Cl)cc1 (stereo unspecified)
assay system: Alpha-1A adrenergic receptor (Homo sapiens, UniProt P35348)
AC50: > 10 µM
--
compound: C[C@]12CCC(=O)C=C1CC[C@@H]1[C@@H]2[C@@H](O)C[C@@]2(C)[C@H]1CC[C@]2(O)C(=O)CO [HYDROCORTISONE]
assay system: Alpha-1A adrenergic receptor (Homo sapiens, UniProt P35348)
AC50: > 10 µM
--
compound: Cc1ccc(-c2cc(C(F)(F)F)nn2-c2ccc(S(N)(=O)=O)cc2)cc1
assay system: Alpha-1A adrenergic receptor (Homo sapiens, UniProt P35348)
AC50: > 10 µM
--
compound: C[C@H](N)[C@H](O)c1cccc(O)c1
assay system: Alpha-1A adrenergic receptor (Homo sapiens, UniProt P35348)
AC50: 30 µM
--
compound: CC(C(=O)O)c1ccc(N2Cc3ccccc3C2=O)cc1 (stereo unspecified)
assay system: Alpha-1A adrenergic receptor (Homo sapiens, UniProt P35348)
AC50: > 30 µM
--
compound: NCC(CC(=O)O)c1ccc(Cl)cc1 (stereo unspecified)
assay system: Alpha-1A adrenergic receptor (Homo sapiens, UniProt P35348)
AC50: > 10 µM
--
compound: CCOc1ccc(Cc2cc([C@@H]3O[C@H](CO)[C@@H](O)[C@H](O)[C@H]3O)ccc2Cl)cc1
assay system: Alpha-1A adrenergic receptor (Homo sapiens, UniProt P35348)
AC50: > 10 µM
--
compound: C#C[C@]1(O)CC[C@H]2[C@@H]3CCC4=Cc5oncc5C[C@]4(C)[C@H]3CC[C@@]21C
assay system: Alpha-1A adrenergic receptor (Homo sapiens, UniProt P35348)
AC50: > 10 µM
